For each of the compounds below, state its Content increase of total impurity (25° C., placed for 30 days).
- protocol details: Solid stability test (25°C, RH 60%, 30 days)
- Format: physicochemical
- conditions used: 25°C±2°C, relative humidity 60%±2%
One number for each entry, in %.

See these solved cases before continuing.
compound	result number
CN[C@@H](CSC(=O)OC(C)[n+]1cnn(C[C@](O)(c2ccc(F)cc2F)[C@@H](C)c2ncncc2F)c1)C(=O)O.Cl.[Cl-] (stereo partly shown)	1.21
CNCCC[C@H](N)C(=O)OCc1cccnc1N(C)C(=O)OC(C)[n+]1cnn(C[C@](O)(c2ccc(F)cc2F)[C@@H](C)c2ncncc2F)c1.[Cl-] (stereo partly shown)	0.88
CC(OC(=O)N(C)c1ncccc1COC(=O)[C@@H](N)CCCN)[n+]1cnn(C[C@](O)(c2ccc(F)cc2F)[C@@H](C)c2ncncc2F)c1.O=[N+]([O-])[O-] (stereo partly shown)	0.92
CNCC(=O)OCc1cccnc1N(C)C(=O)OC(C)[n+]1cnn(C[C@](O)(c2ccc(F)cc2F)[C@@H](C)c2ncncc2F)c1.O=S(=O)([O-])O (stereo partly shown)	0.62
CC(OC(=O)N(C)c1ncccc1COC(=O)[C@@H](N)CCCN)[n+]1cnn(C[C@](O)(c2ccc(F)cc2F)[C@@H](C)c2ncncc2F)c1 (stereo partly shown)	0.67
CC(OC(=O)N(C)c1ncccc1COC(=O)CN(C)C)[n+]1cnn(C[C@](O)(c2ccc(F)cc2F)[C@@H](C)c2ncncc2F)c1.Cl.Cl.[Cl-] (stereo partly shown)	2.23

Consider the following items and state reported Content increase of total impurity (25° C., placed for 30 days) for each.
1. CC(OC(=O)N(C)c1ncccc1COC(=O)[C@@H](N)[C@@H](C)O)[n+]1cnn(C[C@](O)(c2ccc(F)cc2F)[C@@H](C)c2ncncc2F)c1.O=S(=O)([O-])O (stereo partly shown)
2. CC(OC(=O)N(C)c1ncccc1COC(=O)[C@@H](N)CCCN)[n+]1cnn(C[C@](O)(c2ccc(F)cc2F)[C@@H](C)c2ncncc2F)c1.O=P([O-])(O)O (stereo partly shown)
3. CC(OC(=O)N(C)c1ncccc1COC(=O)[C@@H](N)CCC(N)=O)[n+]1cnn(C[C@](O)(c2ccc(F)cc2F)[C@@H](C)c2ncncc2F)c1.O=S(=O)([O-])O (stereo partly shown)
4. CC(OC(=O)N(C)c1ncccc1COC(=O)[C@@H](N)CO)[n+]1cnn(C[C@](O)(c2ccc(F)cc2F)[C@@H](C)c2ncncc2F)c1.O=S(=O)([O-])O (stereo partly shown)

0.49
0.96
0.48
0.32
